assay system: human recombinant serotonin (5-Hydroxytryptamine) 5-HT2A receptor (Homo sapiens)
Construct: expressed in transfected cells; host or cells: CHO-K1 cells
Sequence (P28223 whole entry): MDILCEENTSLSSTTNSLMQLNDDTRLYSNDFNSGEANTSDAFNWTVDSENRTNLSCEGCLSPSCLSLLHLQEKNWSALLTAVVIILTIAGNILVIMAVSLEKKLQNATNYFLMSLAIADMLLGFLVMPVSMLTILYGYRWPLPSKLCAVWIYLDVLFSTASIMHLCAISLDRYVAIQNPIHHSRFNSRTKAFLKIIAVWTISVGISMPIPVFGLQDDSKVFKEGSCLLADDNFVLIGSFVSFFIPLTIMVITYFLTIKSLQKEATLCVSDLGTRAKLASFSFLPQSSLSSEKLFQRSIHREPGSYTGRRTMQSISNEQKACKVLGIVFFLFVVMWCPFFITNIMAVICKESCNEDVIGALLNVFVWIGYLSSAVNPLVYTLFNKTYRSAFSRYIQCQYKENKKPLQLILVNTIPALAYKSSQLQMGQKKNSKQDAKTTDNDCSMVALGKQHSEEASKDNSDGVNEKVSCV
assay notes: Serotonin 5-HT2A radioligand binding ([3H]Ketanserin)
test parameters: percent inhibition of specific binding
Listing of recorded Inhibition of ligand binding, Ser. 5-HT2A by entry.
reported metric: Inhibition of ligand binding, Ser. 5-HT2A

compound: Cc1ccc2c(c1)c1c(n2CC(=O)N2CCCC(C)C2)CCN(C)C1 (stereo not drawn) [Compound 401]
observed measurement: 17%
--
compound: Cc1ccc2c(c1)c1c(n2CC(=O)N2CCSCC2)CCN(C)C1 [Compound 399]
observed measurement: 8%
--
compound: CN1CCc2c(c3cc(Cl)ccc3n2CCC2CCCCC2)C1 [Compound 164]
observed measurement: 91%
--
compound: CCc1ccc2c(c1)c1c(n2CCc2cnc(C)cn2)CCN(C)C1 [Compound 364]
observed measurement: 59%
--
compound: CC(Cn1c2c(c3ccccc31)CN(C)CC2)c1ccc(F)cc1 (stereo not drawn) [Compound 455]
observed measurement: 99%
--
compound: CN1CCc2c(c3cc(Cl)ccc3n2CCC(=O)N2CCCCC2)C1 [Compound 326]
observed measurement: 27%
--
compound: CN1CCc2c(c3cc(Cl)ccc3n2CCCc2ccc(C(F)(F)F)nc2)C1 [Compound 324]
observed measurement: 86%
--
compound: Cc1ccc2c(c1)c1c(n2CCCc2ccc(C(F)(F)F)nc2)CCN(C)C1 [Compound 331]
observed measurement: 93%
--
compound: Cc1ccc(CCn2c3c(c4cc(C(=O)O)ccc42)CNCC3)cn1 [Compound 274]
observed measurement: 6%

====

assay system: human recombinant adrenergic α2A receptor (Homo sapiens, UniProt P08913)
Construct: expressed in transfected cells; host or cells: insect Sf9 cells
Sequence (P08913 1-465): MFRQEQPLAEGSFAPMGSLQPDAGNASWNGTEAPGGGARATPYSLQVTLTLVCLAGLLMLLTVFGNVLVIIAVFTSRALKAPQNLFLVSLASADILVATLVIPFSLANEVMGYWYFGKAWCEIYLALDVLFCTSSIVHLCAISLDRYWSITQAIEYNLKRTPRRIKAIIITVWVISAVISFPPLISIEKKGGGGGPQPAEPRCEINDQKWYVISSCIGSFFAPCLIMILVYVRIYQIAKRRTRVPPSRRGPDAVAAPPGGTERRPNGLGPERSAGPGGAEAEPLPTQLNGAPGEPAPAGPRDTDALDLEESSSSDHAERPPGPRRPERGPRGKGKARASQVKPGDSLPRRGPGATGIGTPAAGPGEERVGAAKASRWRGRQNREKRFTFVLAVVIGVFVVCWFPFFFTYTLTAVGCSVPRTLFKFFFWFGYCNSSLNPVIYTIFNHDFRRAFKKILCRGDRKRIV
assay notes: Adrenergic α2A radioligand binding ([3H]MK-912)
test parameters: compounds screened at 1 μM; read-out: Inhibition of ligand binding, Adren. alpha2A (percent inhibition of specific binding)
Listing of recorded inhibition at 1 µM by entry.

compound structure: CN1CCc2c(c3ccncc3n2CCc2ccncc2)C1
inhibition at 1 µM, %: -7
--
compound structure: Cc1ccc(CCn2c3c(c4cc(I)ccc42)CN(C)CC3)cn1
inhibition at 1 µM, %: 86
--
compound structure: CN1CCc2c(c3cc(Cl)ccc3n2CCc2noc(-c3ccccc3)n2)C1
inhibition at 1 µM, %: 96
--
compound structure: Cc1ccc(CCn2c3c(c4cc(Br)ccc42)CN(C)CC3)cn1
inhibition at 1 µM, %: 88
--
compound structure: CN1CCc2c(c3cc(Br)ccc3n2CC(=O)N2CCCCC2)C1
inhibition at 1 µM, %: 3
--
compound structure: Cc1ccc2c(c1)c1c(n2CCc2noc(-c3ccccc3)n2)CCN(C)C1
inhibition at 1 µM, %: 96
--
compound structure: CN1CCc2c(c3ccncc3n2CCc2ccccn2)C1
inhibition at 1 µM, %: 3
--
compound structure: CN1CCc2c(c3cc(I)ccc3n2CC(=O)N2CCCCC2)C1
inhibition at 1 µM, %: 4
--
compound structure: COc1ccc2c(c1)c1c(n2CCc2nc(-c3ccccc3)cs2)CCN(C)C1
inhibition at 1 µM, %: 55
--
compound structure: CN1CCc2c(c3ccccc3n2CCc2noc(-c3ccccc3)n2)C1
inhibition at 1 µM, %: 95
--
compound structure: CN1CCc2c(c3ncccc3n2CCc2ccccn2)C1
inhibition at 1 µM, %: 28
--
compound structure: CN1CCc2c(c3ncccc3n2CCc2ccncc2)C1
inhibition at 1 µM, %: -17
--
compound structure: Cc1ccc2c(c1)c1c(n2CCc2nc(-c3ccccc3)cs2)CCN(C)C1
inhibition at 1 µM, %: 92
--
compound structure: CN1CCc2c(c3cc(F)ccc3n2CCc2nc(-c3ccccc3)cs2)C1
inhibition at 1 µM, %: 88

====

assay system: human recombinant serotonin (5-Hydroxytryptamine) 5-HT2C receptor (Homo sapiens, UniProt P28335)
Construct: expressed in transfected cells; host or cells: CHO-K1 cells
Sequence (P28335 33-458): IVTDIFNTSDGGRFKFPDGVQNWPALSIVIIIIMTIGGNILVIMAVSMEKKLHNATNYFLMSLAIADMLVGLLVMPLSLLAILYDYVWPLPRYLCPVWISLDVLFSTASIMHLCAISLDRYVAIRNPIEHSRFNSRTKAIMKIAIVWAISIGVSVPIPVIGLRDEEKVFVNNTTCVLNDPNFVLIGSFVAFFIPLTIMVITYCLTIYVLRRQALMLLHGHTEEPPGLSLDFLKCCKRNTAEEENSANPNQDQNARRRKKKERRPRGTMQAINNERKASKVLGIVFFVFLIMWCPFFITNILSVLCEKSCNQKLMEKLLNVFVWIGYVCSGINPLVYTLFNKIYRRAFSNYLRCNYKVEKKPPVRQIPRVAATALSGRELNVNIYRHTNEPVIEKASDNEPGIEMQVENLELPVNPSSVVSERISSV
assay notes: Serotonin 5-HT2C radioligand binding ([3H]Mesulergine)
Parameters: concentration or dose not given beside the values
test parameters: percent inhibition of specific binding
Procedure: Compounds of the invention were incubated with 1 nM [^3H]Mesulergine for 60 minutes at 25° C. Non-specific binding was estimated in the presence of 1 μM Mianserin. Receptor proteins were filtered and washed, the filters were then counted to determine [^3H]Mesulergine specifically bound. […] Biochemical assay results are presented as the percent inhibition of specific binding in Table 6.
Output Met for Inhibition of ligand binding, Ser. 5-HT2C not less than 70%; output Not met otherwise.

compound: Cc1ccc2c(c1)c1c(n2CC(=O)N2CCCC(C)C2)CCN(C)C1 (stereo not drawn)
category: Not met
--
compound: CN1CCc2c(c3cc(Cl)ccc3n2CC(=O)N2CC[S+]([O-])CC2)C1
category: Not met
--
compound: CN1CCN(CCn2c3c(c4cc(Cl)ccc42)CN(C)CC3)CC1
category: Not met
--
compound: CN1CCc2c(c3cc(Cl)ccc3n2CCC2CCCCC2)C1
category: Met
--
compound: CC1CN(C(=O)Cn2c3c(c4cc(Cl)ccc42)CN(C)CC3)CC(C)N1 (stereo not drawn)
category: Not met
--
compound: Cc1ccc2c(c1)c1c(n2CCc2ccc(F)cc2)CCN(C)C1
category: Met
--
compound: CN1CCc2c(c3cc(Cl)ccc3n2CCN2CCCCC2)C1
category: Met
--
compound: CCN1CCc2c(c3cc(C)ccc3n2CCc2ccccn2)C1
category: Not met

====

Test system: AMPA receptors
assay notes: AMPA-receptor activity: kainic acid-induced currents in Purkinje cells (patch-clamp)
Type: cell-based, rat
test parameters: compound 10^−6 M, mean±SEM, control=100%
reported metric: kainic acid-induced currents in Purkinje cells, % of Control values (%)

compound structure: CN1CCc2c(c3cc(Cl)ccc3n2CCc2noc(-c3ccccc3)n2)C1
endpoint unit: %
observed measurement: 140

compound structure: COc1ccc2c(c1)c1c(n2CCc2nc(-c3ccccc3)cs2)CCN(C)C1
endpoint unit: %
observed measurement: 146

compound structure: CN1CCc2c(c3ccccc3n2CCc2noc(-c3ccncc3)n2)C1
endpoint unit: %
observed measurement: 139

compound structure: CN1CCc2c(c3ccccc3n2CCc2nc(-c3ccncc3)cs2)C1
endpoint unit: %
observed measurement: 109

compound structure: CN1CCc2c(c3ccccc3n2CCc2noc(-c3ccccc3)n2)C1
endpoint unit: %
observed measurement: 110

compound structure: Cc1ccc2c(c1)c1c(n2CCc2noc(-c3ccccc3)n2)CCN(C)C1
endpoint unit: %
observed measurement: 142

compound structure: Cc1ccc2c(c1)c1c(n2CCc2nc(-c3ccccc3)cs2)CCN(C)C1
endpoint unit: %
observed measurement: 64

compound structure: CN1CCc2c(c3cc(Cl)ccc3n2CCc2nc(-c3ccccc3)cs2)C1
endpoint unit: %
observed measurement: 123

====

assay system: human recombinant histamine H1 receptor (Homo sapiens)
Construct: expressed in transfected cells; host or cells: CHO cells
Sequence (P35367 whole entry): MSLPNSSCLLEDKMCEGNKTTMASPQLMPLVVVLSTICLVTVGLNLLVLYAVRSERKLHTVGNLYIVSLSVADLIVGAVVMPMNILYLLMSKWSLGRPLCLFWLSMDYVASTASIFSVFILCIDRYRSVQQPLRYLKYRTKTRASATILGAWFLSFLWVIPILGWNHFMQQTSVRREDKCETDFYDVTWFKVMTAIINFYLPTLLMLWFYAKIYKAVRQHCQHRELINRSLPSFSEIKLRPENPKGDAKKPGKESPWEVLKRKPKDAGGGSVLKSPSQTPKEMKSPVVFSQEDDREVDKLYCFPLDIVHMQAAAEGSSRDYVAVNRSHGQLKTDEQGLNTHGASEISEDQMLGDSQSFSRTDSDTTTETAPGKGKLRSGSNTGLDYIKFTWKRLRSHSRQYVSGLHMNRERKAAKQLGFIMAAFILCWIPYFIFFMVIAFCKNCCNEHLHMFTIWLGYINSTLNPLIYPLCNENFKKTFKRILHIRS
assay notes: Histamine H1 radioligand binding ([3H]Pyrilamine)
test parameters: percent inhibition of specific binding; screened at 1 μM; read-out: Inhibition of ligand binding, Hist. H1
Listing of recorded inhibition at 1 µM by entry.

compound structure: Cc1ccc2c(c1)c1c(n2CCc2cnccn2)CCN(C)C1
assay system: human recombinant histamine H1 receptor (Homo sapiens)
inhibition at 1 µM: 93%
//
compound structure: Cc1ccc2c(c1)c1c(n2CCc2ccc(Cl)cc2)CCN(C)C1
assay system: human recombinant histamine H1 receptor (Homo sapiens)
inhibition at 1 µM: 101%
//
compound structure: Cc1ccc2c(c1)c1c(n2CCc2ccncc2)CCN(C)C1
assay system: human recombinant histamine H1 receptor (Homo sapiens)
inhibition at 1 µM: 100%
//
compound structure: Cc1ccc2c(c1)c1c(n2CCN2CCCC2)CCN(C)C1
assay system: human recombinant histamine H1 receptor (Homo sapiens)
inhibition at 1 µM: 78%
//
compound structure: Cc1cnc(CCn2c3c(c4cc(C(C)C)ccc42)CN(C)CC3)cn1
assay system: human recombinant histamine H1 receptor (Homo sapiens)
inhibition at 1 µM: 39%
//
compound structure: CN1CCc2c(c3ccc(Cl)cc3n2CCc2ccccc2)C1
assay system: human recombinant histamine H1 receptor (Homo sapiens)
inhibition at 1 µM: 99%
//
compound structure: CN1CCc2c(c3cc(Cl)ccc3n2CCc2ccccc2)C1
assay system: human recombinant histamine H1 receptor (Homo sapiens)
inhibition at 1 µM: 99%
//
compound structure: CN1CCc2c(c3cc(Cl)ccc3n2CCC(=O)N2CCCCC2)C1
assay system: human recombinant histamine H1 receptor (Homo sapiens)
inhibition at 1 µM: 47%
//
compound structure: CC(C)c1ccc(CCn2c3c(c4cc(Cl)ccc42)CN(C)CC3)cn1
assay system: human recombinant histamine H1 receptor (Homo sapiens)
inhibition at 1 µM: 101%
//
compound structure: CN1CCc2c(c3cc(I)ccc3n2CCc2ccccc2F)C1
assay system: human recombinant histamine H1 receptor (Homo sapiens)
inhibition at 1 µM: 97%
//
compound structure: CCN1CCc2c(c3cc(C)ccc3n2CCc2ccc(C)cc2)C1
assay system: human recombinant histamine H1 receptor (Homo sapiens)
inhibition at 1 µM: 96%
//
compound structure: Cc1ccc2c(c1)c1c(n2CC(=O)N2CCc3ccccc3C2)CCN(C)C1
assay system: human recombinant histamine H1 receptor (Homo sapiens)
inhibition at 1 µM: 76%
//
compound structure: Cc1ccc2c(c1)c1c(n2CCc2cncc(Cl)c2)CCN(C)C1
assay system: human recombinant histamine H1 receptor (Homo sapiens)
inhibition at 1 µM: 102%
//
compound structure: CCCc1ccc(CCn2c3c(c4cc(C)ccc42)CN(C)CC3)cn1
assay system: human recombinant histamine H1 receptor (Homo sapiens)
inhibition at 1 µM: 109%
//
compound structure: Cc1ccc(CCn2c3c(c4ccccc42)CN(C)CC3)cc1
assay system: human recombinant histamine H1 receptor (Homo sapiens)
inhibition at 1 µM: 91%
//
compound structure: Cc1ccc2c(c1)c1c(n2CCCc2ccccn2)CCN(C)C1
assay system: human recombinant histamine H1 receptor (Homo sapiens)
inhibition at 1 µM: 99%
//
compound structure: Cc1ccc2c(c1)c1c(n2CCc2ccc(CO)nc2)CCN(C)C1
assay system: human recombinant histamine H1 receptor (Homo sapiens)
inhibition at 1 µM: 96%
//
compound structure: CN1CCc2c(c3cc(Cl)ccc3n2CC(=O)N2CCOCC2)C1
assay system: human recombinant histamine H1 receptor (Homo sapiens)
inhibition at 1 µM: 26%
//
compound structure: CCc1ccc(CCn2c3c(c4cc(Cl)ccc42)CN(C)CC3)cn1
assay system: human recombinant histamine H1 receptor (Homo sapiens)
inhibition at 1 µM: 99%
//
compound structure: Cc1ccc2c(c1)c1c(n2CCc2ccc(C(=O)O)nc2)CCN(C)C1
assay system: human recombinant histamine H1 receptor (Homo sapiens)
inhibition at 1 µM: 71%
//
compound structure: CCN1CCc2c(c3cc(C)ccc3n2CCc2ccncc2)C1
assay system: human recombinant histamine H1 receptor (Homo sapiens)
inhibition at 1 µM: 99%
//
compound structure: CC(=O)N1CCN(C(=O)Cn2c3c(c4cc(Cl)ccc42)CN(C)CC3)CC1
assay system: human recombinant histamine H1 receptor (Homo sapiens)
inhibition at 1 µM: 43%
//
compound structure: Cc1ccc2c(c1)c1c(n2CC(=O)N2CCSCC2)CCN(C)C1
assay system: human recombinant histamine H1 receptor (Homo sapiens)
inhibition at 1 µM: 42%
//
compound structure: CN1CCc2c(c3cc(Cl)ccc3n2CCc2ccc(F)cc2)C1
assay system: human recombinant histamine H1 receptor (Homo sapiens)
inhibition at 1 µM: 100%
//
compound structure: Cc1ccc2c(c1)c1c(n2CCc2cncc(C(F)(F)F)c2)CCN(C)C1
assay system: human recombinant histamine H1 receptor (Homo sapiens)
inhibition at 1 µM: 100%
//
compound structure: Cc1ccc2c(c1)c1c(n2CCCc2ccc(C(F)(F)F)nc2)CCN(C)C1
assay system: human recombinant histamine H1 receptor (Homo sapiens)
inhibition at 1 µM: 102%
//
compound structure: Cc1ccc(CCn2c3c(c4cc(Cl)ccc42)CN(c2cccc(C(F)(F)F)c2)CC3)cn1
assay system: human recombinant histamine H1 receptor (Homo sapiens)
inhibition at 1 µM: 54%
//
compound structure: Cc1ccc2c(c1)c1c(n2CC(=O)N2CCC(C)CC2)CCN(C)C1
assay system: human recombinant histamine H1 receptor (Homo sapiens)
inhibition at 1 µM: 55%
//
compound structure: Cc1cnc(CCn2c3c(c4cc(Cl)ccc42)CN(C)CC3)cn1
assay system: human recombinant histamine H1 receptor (Homo sapiens)
inhibition at 1 µM: 95%
//
compound structure: Cc1ccc2c(c1)c1c(n2CCC2CCCCC2)CCN(C)C1
assay system: human recombinant histamine H1 receptor (Homo sapiens)
inhibition at 1 µM: 103%
//
compound structure: Cc1ccc2c(c1)c1c(n2Cc2ccc(C)nc2)CCN(C)C1
assay system: human recombinant histamine H1 receptor (Homo sapiens)
inhibition at 1 µM: 74%
